System: S. cerevisiae expressing PfHSP40, growth rescue, plate reader
method.summary: Yeast growth rescue from Plasmodium falciparum HSP40 toxicity, dose response confirmatory, plate reader (AID 540271);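 further: yeast growth read after three days of incubation at 30 °C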
measured.quantity: AC50

Answered examples (3):
compound	AC50
COC(=O)C1=C(C)NC(C)=C(C(=O)OCC(C)C)C1c1ccccc1[N+](=O)[O-] (centres undefined)	5.87 µM
O=C(OCC(=O)C12CC3CC(CC(C3)C1)C2)c1ccc(O)cc1	1.69 µM
CC(C)N1CCN(c2ccc(OC[C@H]3CO[C@](Cn4cncn4)(c4ccc(Cl)cc4Cl)O3)cc2)CC1	2 µM

Proceed to the following item.
Query string: // lookup AC50 for `Cc1cccc(C)c1NS(=O)(=O)c1ccc(-c2cnc(C3CC3)o2)cc1`
Result string: 6.06 µM
